Cited source for all entries: the supplement of paper PMC9732359

assay: protein stability index of a GFP-peptide fusion (yeast GPS) (PSI 1-4); higher = more stable; sorted into four equal gates, so the index is relative within each strain; conditions: san1∆
Answer NOT MET if protein stability index is under 3, and MET if it is 3 or more.

GVVQMVTDNKTPEMNVT [TAF14] ... MET
TIDWVEAGLQLCRQGHN [PRP8] ... NOT MET
KRKYLDIPIDEMTLPTS [SSN2] ... NOT MET

Determine whether measured protein stability index meets or exceeds 3 for TLIKKKQDEKKSSELEL [SMC2]
MET

Determine whether measured protein stability index meets or exceeds 3 for QDDEYVKDWLYDSRPLE [PRP8]
MET

Determine whether measured protein stability index meets or exceeds 3 for LLAQLNGTVNNNSALSN [RPT3]
NOT MET

Determine whether measured protein stability index meets or exceeds 3 for GSENKRGSLDSEHVFDY [NUT1]
MET

Determine whether measured protein stability index meets or exceeds 3 for TGRMRYLKHVSRRFKNG [RPL37A]
MET
